The origin of these recorded values is patent US5807535A.

# assay remarks: Biodistribution of 99mTc complexes in rats
# Type: in vivo, Australian Albino Wistar Rats
# recorded conditions: rat, spleen, rats, 3 min, read-out: biodistribution spleen
// assign Fulfilled if tissue uptake at 0.05 h falls strictly below 0.3 %ID/g, else Not fulfilled (ties count as Not fulfilled)

smiles input	class name
Nc1ccc(O)c(NC(=O)CN(CCN(CC(=O)O)CC(=O)Nc2cc(N)ccc2O)CC(=O)O)c1	Not fulfilled
O=C(O)CN(CCN(CC(=O)O)CC(=O)Nc1ccc(Cl)cc1O)CC(=O)Nc1ccc(Cl)cc1O	Not fulfilled
O=C(O)CN(CCN(CC(=O)O)CC(=O)Nc1cc([N+](=O)[O-])ccc1O)CC(=O)Nc1cc([N+](=O)[O-])ccc1O	Fulfilled
O=C(O)CN(CCN(CC(=O)O)CC(=O)Nc1ccccc1O)CC(=O)Nc1ccccc1O	Fulfilled
CC(C)(C)c1ccc(O)c(NC(=O)CN(CCN(CC(=O)O)CC(=O)Nc2cc(C(C)(C)C)ccc2O)CC(=O)O)c1	Not fulfilled
